System: VEEV TC-83
experiment: microbe, parasite or virus in culture
Type: cell-based
measurement.context: Venezuelan equine encephalitis virus, Vero 76, read-out: Assay provided VEEV CPE inhibition
IC50 reference

- NS(=O)(=O)c1ccc(-n2c(-c3ccccc3)nc3ccc(Br)cc3c2=O)cc1: > 25 µM

Would you kindly share the measured IC50 for O=C(O)Cc1ccccc1Nc1c(Cl)cccc1Cl [diclofenac sodium] ?
> 50 µM

Would you kindly share the measured IC50 for Cc1cc(Cc2cc(C)cc(C(C)(C)C)c2O)c(O)c(Cc2cc(C)cc(C(C)(C)C)c2O)c1 [antioxidant 80] ?
> 50 µM

Would you kindly share the measured IC50 for NC(=O)c1ncn([C@@H]2O[C@H](CO)[C@@H](O)[C@H]2O)n1 ?
126 µM
